# Test System: BRM (Homo sapiens, UniProt P51531)
# Construct: In-Cell Western Screen of BRM Degradation in SW1573 Cells; endogenous in cells; host or cells: SW1573
# Sequence (P51531 whole entry): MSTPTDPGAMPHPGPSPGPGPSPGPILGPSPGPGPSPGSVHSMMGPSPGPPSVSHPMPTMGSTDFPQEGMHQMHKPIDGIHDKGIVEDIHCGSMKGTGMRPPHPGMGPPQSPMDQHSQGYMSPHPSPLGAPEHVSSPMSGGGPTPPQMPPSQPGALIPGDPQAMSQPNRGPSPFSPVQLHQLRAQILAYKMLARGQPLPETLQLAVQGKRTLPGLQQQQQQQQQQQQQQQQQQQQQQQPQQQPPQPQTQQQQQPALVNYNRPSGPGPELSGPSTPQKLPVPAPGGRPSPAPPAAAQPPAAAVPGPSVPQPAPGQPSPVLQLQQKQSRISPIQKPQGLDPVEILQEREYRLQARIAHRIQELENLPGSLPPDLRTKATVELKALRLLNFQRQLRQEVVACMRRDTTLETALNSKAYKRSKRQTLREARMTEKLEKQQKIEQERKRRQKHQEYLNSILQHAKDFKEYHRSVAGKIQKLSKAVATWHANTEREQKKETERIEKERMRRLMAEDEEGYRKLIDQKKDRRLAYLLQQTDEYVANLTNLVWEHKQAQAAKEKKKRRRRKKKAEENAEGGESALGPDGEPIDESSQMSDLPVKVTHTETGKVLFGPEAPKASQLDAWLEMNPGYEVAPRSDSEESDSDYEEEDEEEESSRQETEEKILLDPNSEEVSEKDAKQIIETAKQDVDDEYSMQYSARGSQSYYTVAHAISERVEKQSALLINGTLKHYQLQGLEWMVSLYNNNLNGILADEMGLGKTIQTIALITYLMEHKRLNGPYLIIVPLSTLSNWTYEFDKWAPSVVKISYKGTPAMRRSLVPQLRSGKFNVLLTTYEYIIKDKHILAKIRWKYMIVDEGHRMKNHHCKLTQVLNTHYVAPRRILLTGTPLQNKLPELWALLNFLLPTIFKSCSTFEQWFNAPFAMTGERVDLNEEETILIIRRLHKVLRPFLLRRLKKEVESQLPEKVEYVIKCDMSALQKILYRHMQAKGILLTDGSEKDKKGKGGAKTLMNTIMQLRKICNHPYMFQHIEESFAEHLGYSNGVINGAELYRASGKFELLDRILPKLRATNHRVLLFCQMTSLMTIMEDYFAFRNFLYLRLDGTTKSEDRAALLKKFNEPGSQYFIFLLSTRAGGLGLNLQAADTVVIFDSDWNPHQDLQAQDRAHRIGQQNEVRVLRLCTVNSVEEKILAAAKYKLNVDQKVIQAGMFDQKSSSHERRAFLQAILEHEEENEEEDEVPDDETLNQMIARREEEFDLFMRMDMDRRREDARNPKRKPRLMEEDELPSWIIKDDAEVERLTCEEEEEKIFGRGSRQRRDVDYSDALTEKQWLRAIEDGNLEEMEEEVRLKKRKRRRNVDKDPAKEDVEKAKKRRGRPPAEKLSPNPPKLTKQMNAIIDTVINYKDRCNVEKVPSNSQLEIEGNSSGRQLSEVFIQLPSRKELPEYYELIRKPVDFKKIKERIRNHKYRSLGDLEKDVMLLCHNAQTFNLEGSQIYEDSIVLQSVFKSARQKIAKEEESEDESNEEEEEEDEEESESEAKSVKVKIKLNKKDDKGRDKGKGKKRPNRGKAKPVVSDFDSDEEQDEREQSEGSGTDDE
# Procedure Summary: In-cell Western screen of BRM degradation in SW1573 cells (Dmax and DC50)
# Format: cell-based
# Recorded Conditions: BRM degradation, SW1573 cells; when tested at the top concentration of between 0.3 and 10 μM; read-out: Dmax (%) (% degraded)
Readout Kind: Dmax

Compound: Cc1ncsc1-c1ccc(CNC(=O)[C@@H]2C[C@@H](O)CN2C(=O)[C@H](C(C)C)N2Cc3ccccc3C2=O)c(OCCOCCOCCOCCn2cc(-c3cc(-c4ccccc4O)nnc3N)cn2)c1
Reported Measurement: 50 to 75%

Compound: Cc1ncsc1-c1ccc(CNC(=O)[C@@H]2C[C@@H](O)CN2C(=O)C(c2cc(CCCOCCOCCn3cc(-c4cc(-c5ccccc5O)nnc4N)cn3)no2)C(C)C)cc1 (stereo partly drawn)
Reported Measurement: > 75%

Compound: Cc1ncsc1-c1ccc(CNC(=O)[C@@H]2C[C@@H](O)CN2C(=O)[C@@H](NC(=O)CN2CCN(c3ccc(CCOCCCc4cc(N5C6CCC5CN(c5cc(-c7ccccc7O)nnc5N)C6)ccn4)cn3)CC2)C(C)(C)C)cc1
Reported Measurement: > 75%

---

# Test System: BRM (Homo sapiens, UniProt P51531)
# Construct: In-Cell Western Screen of BRM Degradation in SW1573 Cells; endogenous in cells; host or cells: SW1573
# Procedure Summary: In-cell Western screen of BRM degradation in SW1573 cells (Dmax and DC50)
# Assay type: cell-based
# Recorded Conditions: BRM degradation, SW1573 cells; read-out: DC50
Readout Kind: DC50

Compound: Cc1ncsc1-c1ccc(CNC(=O)[C@@H]2C[C@@H](O)CN2C(=O)[C@@H](c2cc(OCCN3CCN(CCOCCn4cc(-c5cc(-c6ccccc6O)nnc5N)cn4)CC3)no2)C(C)C)cc1
Test System: BRM (Homo sapiens, UniProt P51531)
Readout Kind: DC50
Reported Measurement: > 30 nM

Compound: Cc1ncsc1-c1ccc([C@H](C)NC(=O)[C@@H]2C[C@@H](O)CN2C(=O)[C@@H](c2cc(OCCOc3ccc(C(C)n4cc(-c5cc(-c6ccccc6O)nnc5N)cn4)cn3)no2)C(C)C)cc1 (stereo partly drawn)
Test System: BRM (Homo sapiens, UniProt P51531)
Readout Kind: DC50
Reported Measurement: < 2.5 nM

Compound: Cc1ncsc1-c1ccc([C@H](C)NC(=O)[C@@H]2C[C@@H](O)CN2C(=O)[C@@H](c2cc(CCCOCCOCCOCCn3cc(-c4cc(-c5ccccc5O)nnc4N)cn3)no2)C(C)C)cc1
Test System: BRM (Homo sapiens, UniProt P51531)
Readout Kind: DC50
Reported Measurement: < 2.5 nM

Compound: Cc1ncsc1-c1ccc([C@@H](COCC(C)C)NC(=O)[C@@H]2C[C@@H](O)CN2C(=O)[C@@H](c2cc(OCCN3CCN(CCOc4cc(N5C6CCC5CN(c5cc(-c7ccccc7O)nnc5N)C6)ccn4)CC3)no2)C(C)C)cc1
Test System: BRM (Homo sapiens, UniProt P51531)
Readout Kind: DC50
Reported Measurement: < 2.5 nM

Compound: Cc1ncsc1-c1ccc([C@H](CO)NC(=O)[C@@H]2C[C@@H](O)CN2C(=O)[C@@H](c2cc(N3CCC(CN4CCC(O[C@H]5C[C@H](Oc6cc(N7C8CCC7CN(c7cc(-c9ccccc9O)nnc7N)C8)ccn6)C5)CC4)CC3)no2)C(C)C)cc1
Test System: BRM (Homo sapiens, UniProt P51531)
Readout Kind: DC50
Reported Measurement: < 2.5 nM

Compound: Cc1nccn1-c1ccc([C@H](C)NC(=O)[C@@H]2C[C@@H](O)CN2C(=O)[C@@H](c2cc(OC/C=C/c3ccc(O[C@H]4C[C@H](Oc5cc(N6C7CCC6CN(c6cc(-c8ccccc8O)nnc6N)C7)ccn5)C4)cn3)no2)C(C)C)cc1
Test System: BRM (Homo sapiens, UniProt P51531)
Readout Kind: DC50
Reported Measurement: < 2.5 nM

Compound: Cc1ncsc1-c1ccc([C@H](C)NC(=O)[C@@H]2C[C@@H](O)CN2C(=O)[C@H](c2cc(OCCN3CCN(CC#CCN4CCOC5(CCN(c6cc(-c7ccccc7O)nnc6N)CC5)C4)CC3)no2)C(C)C)cc1
Test System: BRM (Homo sapiens, UniProt P51531)
Readout Kind: DC50
Reported Measurement: > 30 nM

Compound: Cc1ncsc1-c1ccc([C@H](C)NC(=O)[C@@H]2C[C@@H](O)CN2C(=O)[C@@H](c2cc(N3CCN(C(C)[C@H]4C[C@H](Oc5cc(N6C7CCC6CN(c6cc(-c8ccccc8O)nnc6N)C7)ccn5)C4)CC3)no2)C(C)C)cc1 (stereo partly drawn)
Test System: BRM (Homo sapiens, UniProt P51531)
Readout Kind: DC50
Reported Measurement: < 2.5 nM

Compound: Cc1ncsc1-c1ccc(CNC(=O)[C@@H]2C[C@@H](O)CN2C(=O)[C@@H](NC(=O)COCCOCCOCCOC/C=C/c2cc(N3C4CCC3CN(c3cc(-c5ccccc5O)nnc3N)C4)ccn2)C(C)(C)C)cc1
Test System: BRM (Homo sapiens, UniProt P51531)
Readout Kind: DC50
Reported Measurement: 10 to 30 nM

---

Let's look at some compounds and their measured DC50.
# Test System: BRM (Homo sapiens, UniProt P51531)
# Construct: In-Cell Western Screen of BRM Degradation in SW1573 Cells; endogenous in cells; host or cells: SW1573
# Procedure Summary: In-cell Western screen of BRM degradation in SW1573 cells (Dmax and DC50)
# Format: cell-based
# Recorded Conditions: BRM degradation, SW1573 cells; read-out: DC50
Readout Kind: DC50

Compound: CC(C)[C@H](C(=O)N1C[C@H](O)C[C@H]1C(=O)N[C@@H](C)c1ccc(C#N)cc1)c1cc(OCCN2CCC(O[C@H]3C[C@H](Oc4cc(N5C6CCC5CN(c5cc(-c7ccccc7O)nnc5N)C6)ccn4)C3)CC2)no1 [compound 204]
Reported Measurement: > 30 nM
--
Compound: Cc1ncsc1-c1ccc([C@H](C)NC(=O)[C@@H]2C[C@@H](O)CN2C(=O)[C@@H](c2cc(N3CCC(CN4CCC(O[C@H]5C[C@H](CN6CCC(C(C)n7cc(-c8cc(-c9ccccc9O)nnc8N)cn7)CC6)C5)CC4)CC3)no2)C(C)C)cc1 (some centres unmarked) [compound 642]
Reported Measurement: < 2.5 nM
--
Compound: Cc1ncsc1-c1ccc([C@H](C)NC(=O)[C@@H]2C[C@@H](O)CN2C(=O)[C@H](c2cc(N3CCC(CN4CCC(O[C@H]5C[C@H](Oc6cc(N7C8CCC7CN(c7cc(-c9ccccc9O)nnc7N)C8)ccn6)C5)CC4)CC3)no2)C(C)C)cc1F [compound 651]
Reported Measurement: > 30 nM
--
Compound: CCOC[C@H](NC(=O)[C@@H]1C[C@@H](O)CN1C(=O)[C@@H](c1cc(OCCN2CCN(CCOc3cc(N4C5CCC4CN(c4cc(-c6ccccc6O)nnc4N)C5)ccn3)CC2)no1)C(C)C)c1ccc(-c2scnc2C)cc1 [compound 128]
Reported Measurement: < 2.5 nM
--
Compound: Cc1ncsc1-c1ccc([C@H](C)NC(=O)[C@@H]2C[C@@H](O)CN2C(=O)[C@H](c2cc(O[C@H]3C[C@H](CN4CCC(O[C@H]5C[C@H](Oc6cc(N7C8CCC7CN(c7cc(-c9ccccc9O)nnc7N)C8)ccn6)C5)CC4)C3)no2)C(C)C)cc1 [compound 241]
Reported Measurement: 2.5 to 10 nM
--
Compound: Cc1ncsc1-c1ccc([C@H](C)NC(=O)[C@@H]2C[C@@H](O)CN2C(=O)[C@@H](c2cc(OCCC3CCN(C(=O)[C@H]4C[C@H](Oc5cc(N6C7CCC6CN(c6cc(-c8ccccc8O)nnc6N)C7)ccn5)C4)CC3)no2)C(C)C)cn1 [compound 261]
Reported Measurement: < 2.5 nM
--
Compound: CC(C)[C@@H](C(=O)N1C[C@H](O)C[C@H]1C(=O)N[C@@H](C)c1ccc(-c2c(Cl)cnn2C)cc1)c1cc(OCCN2CCN(CCOc3cc(N4C5CCC4CN(c4cc(-c6ccccc6O)nnc4N)C5)ccn3)CC2)no1 [compound 283]
Reported Measurement: < 2.5 nM
--
Compound: Cc1ncsc1-c1ccc([C@H](C)NC(=O)[C@@H]2C[C@@H](O)CN2C(=O)[C@@H](c2cc(N3CCC(CN4CCC(O[C@H]5C[C@H](Oc6cc(N7C8CCC7CN(c7cc(-c9ccccc9O)nnc7N)C8)ccn6)C5)CC4)CC3)no2)C(C)C)cn1 [compound 675]
Reported Measurement: < 2.5 nM

---

# DC50 per entry
# Test System: BRM (Homo sapiens, UniProt P51531)
# Construct: In-Cell Western Screen of BRM Degradation in SW1573 Cells; endogenous in cells; host or cells: SW1573
# Procedure Summary: In-cell Western screen of BRM degradation in SW1573 cells (Dmax and DC50)
# Format: cell-based
# Recorded Conditions: BRM degradation; read-out: BRM DC50
Readout Kind: DC50

Mol Smiles: Cc1ncsc1-c1ccc([C@H](C)NC(=O)[C@@H]2C[C@@H](O)CN2C(=O)[C@@H](c2cc(OCCC3CCN(CCOc4cc(N5C6CCC5CN(c5cc(-c7ccccc7O)nnc5N)C6)ccn4)CC3)no2)C(C)C)cc1
Test System: BRM (Homo sapiens, UniProt P51531)
Readout Kind: DC50
Reported Measurement: > 30 nM
//
Mol Smiles: Cc1ncsc1-c1ccc([C@H](C)NC(=O)[C@@H]2C[C@@H](O)CN2C(=O)[C@@H](c2cc(OCCN3CCC(O[C@H]4C[C@H](Oc5cc(N6C7CCC6CN(c6cc(-c8ccccc8OP(=O)(O)O)nnc6N)C7)ccn5)C4)CC3)no2)C(C)C)cc1
Test System: BRM (Homo sapiens, UniProt P51531)
Readout Kind: DC50
Reported Measurement: < 2.5 nM
//
Mol Smiles: Cc1ncsc1-c1ccc([C@H](C)NC(=O)[C@@H]2C[C@@H](O)CN2C(=O)[C@@H](c2cc(N3CCN(CC#Cc4ncc(O[C@H]5C[C@H](Oc6cc(N7C8CCC7CN(c7cc(-c9ccccc9O)nnc7N)C8)ccn6)C5)cn4)CC3)no2)C(C)C)cc1
Test System: BRM (Homo sapiens, UniProt P51531)
Readout Kind: DC50
Reported Measurement: < 2.5 nM
//
Mol Smiles: Cc1ncsc1-c1ccc([C@H](C)NC(=O)[C@@H]2C[C@@H](O)CN2C(=O)[C@@H](c2cc(N3CC(CN4CC(COc5cc(N6C7CCC6CN(c6cc(-c8ccccc8O)nnc6N)C7)ccn5)C4)C3)no2)C(C)C)cc1
Test System: BRM (Homo sapiens, UniProt P51531)
Readout Kind: DC50
Reported Measurement: > 30 nM
